Target: CYP2C19 (Homo sapiens, UniProt P33261)
Sequence (P33261 whole entry): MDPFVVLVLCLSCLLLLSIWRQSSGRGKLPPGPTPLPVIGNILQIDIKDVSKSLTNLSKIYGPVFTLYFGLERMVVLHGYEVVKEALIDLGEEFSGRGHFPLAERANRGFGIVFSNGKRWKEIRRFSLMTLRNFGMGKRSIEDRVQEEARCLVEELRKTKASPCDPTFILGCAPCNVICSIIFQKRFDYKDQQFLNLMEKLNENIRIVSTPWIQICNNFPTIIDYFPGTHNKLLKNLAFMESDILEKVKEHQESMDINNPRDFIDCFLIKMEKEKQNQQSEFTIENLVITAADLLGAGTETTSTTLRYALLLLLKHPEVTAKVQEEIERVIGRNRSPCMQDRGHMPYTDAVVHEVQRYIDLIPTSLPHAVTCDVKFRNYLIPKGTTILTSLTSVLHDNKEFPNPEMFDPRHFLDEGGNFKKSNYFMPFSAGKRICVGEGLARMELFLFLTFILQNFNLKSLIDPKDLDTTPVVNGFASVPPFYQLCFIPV
Assay: Reversible CYP inhibition in human liver microsomes
Conditions: human, microsomes, pH 7.4, Percent of Control Activity, CYP 2C19, 200 µM, Zero-Minute Preincubation
quantity: activity at 200 µM (%)

[[record]]
smiles_representation = "COc1cccc2[nH]c(C(=O)N[C@@H](CC(C)C)C(=O)N[C@@H](C[C@@H]3CCNC3=O)C(=O)CO)cc12"
target_of_assay = "CYP2C19 (Homo sapiens, UniProt P33261)"
quantity = "activity at 200 µM"
unit_of_measurement = "%"
assay_result = 69.2


====

Molecular target: CYP2B6 (Homo sapiens, UniProt P20813)
Sequence (P20813 whole entry): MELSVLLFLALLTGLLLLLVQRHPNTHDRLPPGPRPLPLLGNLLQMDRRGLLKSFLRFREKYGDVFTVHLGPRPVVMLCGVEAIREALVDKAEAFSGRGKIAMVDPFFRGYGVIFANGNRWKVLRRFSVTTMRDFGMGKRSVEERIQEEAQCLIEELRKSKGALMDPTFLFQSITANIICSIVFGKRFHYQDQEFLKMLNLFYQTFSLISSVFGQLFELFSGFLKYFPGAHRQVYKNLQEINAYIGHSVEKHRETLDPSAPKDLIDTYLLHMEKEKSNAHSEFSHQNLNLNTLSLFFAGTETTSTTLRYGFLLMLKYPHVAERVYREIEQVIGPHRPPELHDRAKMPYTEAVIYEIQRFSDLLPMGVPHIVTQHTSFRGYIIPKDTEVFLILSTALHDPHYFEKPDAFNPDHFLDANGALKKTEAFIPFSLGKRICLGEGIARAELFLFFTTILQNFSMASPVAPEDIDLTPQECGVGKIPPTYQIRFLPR
Assay: Reversible CYP inhibition in human liver microsomes
Assay type: in vitro ADME
Settings: human, human liver microsomes, pH 7.4, CYP 2B6, 0.214 µM, 30-Minute Preincubation; read-out: Percent of Control Activity
quantity: activity at 0.214 µM (%)

[[record]]
compound = "COc1cccc2[nH]c(C(=O)N[C@@H](CC(C)C)C(=O)N[C@@H](C[C@@H]3CCNC3=O)C(=O)CO)cc12 [PF-00835231]"
target_of_assay = "CYP2B6 (Homo sapiens, UniProt P20813)"
quantity = "activity at 0.214 µM"
unit_of_measurement = "%"
assay_result = 103


====

Test: Plasma protein binding by equilibrium dialysis
Conditions: Wistar Han, rat, plasma, pH 7.4, Fraction unbound, Geomean, Rat plasma, 5.0 uM, n 12
quantity: fraction unbound at 6 h, 5 uM

[[record]]
molecule = "COc1cccc2[nH]c(C(=O)N[C@@H](CC(C)C)C(=O)N[C@@H](C[C@@H]3CCNC3=O)C(=O)CO)cc12 [PF-00835231]"
assay_result = 0.327


====

Test system: CYP3A4/5
Assay: in vitro
Conditions: human, microsomes, pH 7.4, Percent of Control Activity, CYP 3A4/5 (mdz), 43.8 µM, Zero-Minute Preincubation
quantity: activity at 43.8 µM (%)

[[record]]
smiles_representation = "COc1cccc2[nH]c(C(=O)N[C@@H](CC(C)C)C(=O)N[C@@H](C[C@@H]3CCNC3=O)C(=O)CO)cc12"
target_of_assay = "CYP3A4/5"
assay_result = 101


====

Test: Monkey pharmacokinetic study
Settings: male, Cynomolgus, cynomolgus monkey, plasma, iv, 1 mg/kg, Vdss, Mean, monkey, PF-00835231 active dosed 1mg/kg intravenous (crossover)
quantity: Vd

[[record]]
smiles_representation = "COc1cccc2[nH]c(C(=O)N[C@@H](CC(C)C)C(=O)N[C@@H](C[C@@H]3CCNC3=O)C(=O)CO)cc12"
assay_result = "1.43 L/kg"


====

Test system: CYP3A4/5
Assay: Reversible CYP inhibition in human liver microsomes
Settings: human, human liver microsomes, pH 7.4, probe midazolam (mdz), Percent of Control Activity, CYP 3A4/5 (mdz), 200 µM, 30-Minute Preincubation
quantity: activity at 200 µM (%)

[[record]]
smiles_representation = "COc1cccc2[nH]c(C(=O)N[C@@H](CC(C)C)C(=O)N[C@@H](C[C@@H]3CCNC3=O)C(=O)CO)cc12"
target_of_assay = "CYP3A4/5"
unit_of_measurement = "%"
assay_result = 54.3


====

Experiment: Plasma protein binding by equilibrium dialysis
Conditions: monkey, plasma, pH 7.4, fraction unbound Geomean, monkey plasma, 5.0 uM, n=12
quantity: fraction unbound at 6 h, 5 uM

[[record]]
smiles_representation = "COc1cccc2[nH]c(C(=O)N[C@@H](CC(C)C)C(=O)N[C@@H](C[C@@H]3CCNC3=O)C(=O)CO)cc12"
quantity = "fraction unbound at 6 h, 5 uM"
assay_result = 0.441


====

Assay: Plasma protein binding by equilibrium dialysis
Conditions: both, Cynomologous, cynomolgus monkey, plasma, pH 7.4, Individual fraction unbound, monkey plasma, Cynomologous, male and female, 3.44 uM, Day 2
quantity: fraction unbound at 6 h, 3.44 uM

[[record]]
smiles_representation = "COc1cccc2[nH]c(C(=O)N[C@@H](CC(C)C)C(=O)N[C@@H](C[C@@H]3CCNC3=O)C(=O)COP(=O)(O)O)cc12"
quantity = "fraction unbound at 6 h, 3.44 uM"
assay_result = 0.356


====

Biological target: CYP2B6 (Homo sapiens, UniProt P20813)
Assay: Reversible CYP inhibition in human liver microsomes
Format: in vitro ADME
Conditions: human, human liver microsomes, pH 7.4, CYP 2B6, 93.5 µM, 30-Minute Preincubation; read-out: Percent of Control Activity
quantity: activity at 93.5 µM (%)

[[record]]
smiles_representation = "COc1cccc2[nH]c(C(=O)N[C@@H](CC(C)C)C(=O)N[C@@H](C[C@@H]3CCNC3=O)C(=O)CO)cc12"
assay_result = 73.5


====

System: VeroE6-EGFP cells
quantity: CC50

[[record]]
molecule = "COc1cccc2[nH]c(C(=O)N[C@@H](CC(C)C)C(=O)N[C@@H](C[C@@H]3CCNC3=O)C(=O)COP(=O)(O)O)cc12 [PF-073048141]"
assay_result = "> 50 µM"


====

Molecular target: CYP2D6 (Homo sapiens)
Sequence (P10635 whole entry): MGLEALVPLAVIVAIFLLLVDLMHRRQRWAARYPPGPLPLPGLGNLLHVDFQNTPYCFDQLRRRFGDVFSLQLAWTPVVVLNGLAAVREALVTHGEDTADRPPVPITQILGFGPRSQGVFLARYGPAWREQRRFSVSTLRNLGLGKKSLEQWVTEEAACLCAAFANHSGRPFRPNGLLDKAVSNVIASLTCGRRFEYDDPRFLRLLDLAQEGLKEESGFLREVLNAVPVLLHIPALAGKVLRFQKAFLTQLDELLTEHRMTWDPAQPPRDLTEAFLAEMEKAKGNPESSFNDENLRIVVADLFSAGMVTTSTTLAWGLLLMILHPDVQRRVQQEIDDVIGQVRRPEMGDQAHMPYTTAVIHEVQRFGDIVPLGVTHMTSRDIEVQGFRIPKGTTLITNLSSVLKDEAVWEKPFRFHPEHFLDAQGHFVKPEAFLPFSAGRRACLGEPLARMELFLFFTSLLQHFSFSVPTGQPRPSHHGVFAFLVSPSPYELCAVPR
Assay: Reversible CYP inhibition in human liver microsomes
Conditions: human, microsomes, pH 7.4, Percent of Control Activity, CYP 2D6, 15.8 µM, Zero-Minute Preincubation
quantity: activity at 15.8 µM (%)

[[record]]
smiles_representation = "COc1cccc2[nH]c(C(=O)N[C@@H](CC(C)C)C(=O)N[C@@H](C[C@@H]3CCNC3=O)C(=O)COP(=O)(O)O)cc12"
target_of_assay = "CYP2D6 (Homo sapiens)"
unit_of_measurement = "%"
assay_result = 106


====

Experiment: Plasma protein binding by equilibrium dialysis
Details: Wistar Hannover, rat, plasma, pH 7.4, Unbound fraction fu (%CV), rat plasma (PF-07304814 Sprague-Dawley, PF-00835231 Wistar Hannover)
quantity: fraction unbound at 6 h

[[record]]
smiles_representation = "COc1cccc2[nH]c(C(=O)N[C@@H](CC(C)C)C(=O)N[C@@H](C[C@@H]3CCNC3=O)C(=O)CO)cc12"
quantity = "fraction unbound at 6 h"
assay_result = 0.327


====

Target: CYP2B6 (Homo sapiens, UniProt P20813)
Test: Reversible CYP inhibition in human liver microsomes
Format: in vitro ADME
Details: human, human liver microsomes, pH 7.4, CYP 2B6, 20.5 µM, 30-Minute Preincubation; read-out: Percent of Control Activity
quantity: activity at 20.5 µM (%)

[[record]]
smiles_representation = "COc1cccc2[nH]c(C(=O)N[C@@H](CC(C)C)C(=O)N[C@@H](C[C@@H]3CCNC3=O)C(=O)CO)cc12"
target_of_assay = "CYP2B6 (Homo sapiens, UniProt P20813)"
unit_of_measurement = "%"
assay_result = 91.3


====

Test: Monkey pharmacokinetic study
Details: male, cynomolgus monkey, plasma, iv, 1 mg/kg, Vdss, Monkey, 1mg/kg intravenous, individual animals
quantity: Vd (L/kg)

[[record]]
smiles_representation = "COc1cccc2[nH]c(C(=O)N[C@@H](CC(C)C)C(=O)N[C@@H](C[C@@H]3CCNC3=O)C(=O)CO)cc12"
quantity = "Vd"
assay_result = 1.34


====

Biological target: CYP2C8 (Homo sapiens)
Sequence (P10632 1-490): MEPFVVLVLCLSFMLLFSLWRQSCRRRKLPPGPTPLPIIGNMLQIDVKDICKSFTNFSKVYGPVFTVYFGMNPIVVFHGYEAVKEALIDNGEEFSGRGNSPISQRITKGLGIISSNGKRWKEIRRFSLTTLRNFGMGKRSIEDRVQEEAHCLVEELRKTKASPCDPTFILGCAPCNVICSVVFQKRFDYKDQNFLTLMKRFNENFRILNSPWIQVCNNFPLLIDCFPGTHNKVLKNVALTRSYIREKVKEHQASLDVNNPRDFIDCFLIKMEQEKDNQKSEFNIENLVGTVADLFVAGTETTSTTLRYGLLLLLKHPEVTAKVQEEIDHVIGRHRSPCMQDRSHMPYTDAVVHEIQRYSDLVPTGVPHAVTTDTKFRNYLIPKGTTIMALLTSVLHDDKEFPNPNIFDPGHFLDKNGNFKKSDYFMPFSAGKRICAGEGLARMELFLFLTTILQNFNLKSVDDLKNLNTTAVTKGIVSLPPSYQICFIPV
Assay: Reversible CYP inhibition in human liver microsomes
Settings: human, microsomes, pH 7.4, Percent of Control Activity, CYP 2C8, 1 µM, 30-Minute Preincubation
quantity: activity at 1 µM (%)

[[record]]
smiles_representation = "COc1cccc2[nH]c(C(=O)N[C@@H](CC(C)C)C(=O)N[C@@H](C[C@@H]3CCNC3=O)C(=O)COP(=O)(O)O)cc12"
target_of_assay = "CYP2C8 (Homo sapiens)"
quantity = "activity at 1 µM"
unit_of_measurement = "%"
assay_result = 91.8


====

Assay: Metabolic stability and enzyme kinetics in liver S9 (conversion to PF-00835231)
Settings: rat, rat liver S9, pH 7.5, KM
quantity: Km at 20 min (µM)

[[record]]
smiles_representation = "COc1cccc2[nH]c(C(=O)N[C@@H](CC(C)C)C(=O)N[C@@H](C[C@@H]3CCNC3=O)C(=O)COP(=O)(O)O)cc12"
quantity = "Km at 20 min"
unit_of_measurement = "µM"
assay_result = 53.4


All figures here come from paper PMC8523698.
